# viability, T/C per record follows
Test system: 171881-019-R-J1-PDC tumor spheroid viability;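 also: spheroids exposed to compound for 7 days before viability read; 100% = DMSO vehicle-treated spheroids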
assayText: Anticancer human tumor 171881-019-R-J1-PDC patient-derived invasive breast carcinoma cell line growth inhibition [PI3K]
reportedConditions: second compound 0.0316 µM; first compound 10 µM; stronger effect = lower value; spheroids with HUVEC and MSC

Worked examples, 3 molecules total:
# molecule, viability, T/C
records = [
    ("CC(C)NCC(C(=O)N1CCN(c2ncnc3c2C(C)CC3O)CC1)c1ccc(Cl)cc1 (stereo not given) + COc1c(OCCCN2CCOCC2)ccc2c3n(c(=NC(=O)c4cnc(N)nc4)nc12)CCN3", "5.68%"),
    ("Cn1ncc(Cl)c1-c1cc(C(=O)NC(CN)Cc2cccc(F)c2)sc1Cl (stereo not given) + COc1c(OCCCN2CCOCC2)ccc2c3n(c(=NC(=O)c4cnc(N)nc4)nc12)CCN3", "4.52%"),
    ("CC1(C)CCC(CN2CCN(c3ccc(C(=O)NS(=O)(=O)c4ccc(NCC5CCOCC5)c([N+](=O)[O-])c4)c(Oc4cnc5[nH]ccc5c4)c3)CC2)=C(c2ccc(Cl)cc2)C1 + CC(Nc1ccc2c(c1)OCCn1cc(N3C(=O)OCC3C(F)F)nc1-2)C(N)=O", "10.3%"),
]

Lab note: measured viability, T/C of CC1(C)CCC(CN2CCN(c3ccc(C(=O)NS(=O)(=O)c4ccc(NCC5CCOCC5)c([N+](=O)[O-])c4)c(Oc4cnc5[nH]ccc5c4)c3)CC2)=C(c2ccc(Cl)cc2)C1 + COc1c(OCCCN2CCOCC2)ccc2c3n(c(=NC(=O)c4cnc(N)nc4)nc12)CCN3 was 27.7%

Lab note: measured viability, T/C of CCCS(=O)(=O)Nc1ccc(F)c(C(=O)c2c[nH]c3ncc(-c4ccc(Cl)cc4)cc23)c1F + CC(Nc1ncnc2nc[nH]c12)c1cc2cccc(Cl)c2c(=O)n1-c1ccccc1 was 12.2%
